B1: OR10K2 (parent)
chain: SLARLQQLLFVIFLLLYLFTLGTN

- Variants of: B1
- PROCEDURE SUMMARY: protein stability index of a GFP-peptide fusion (GPS, HEK-293T) (PSI 1-6); higher = more stable;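 also: lentivirally expressed fusions sorted by FACS into six bins by GFP to DsRed ratio, PSI derived from sequencing read proportions per bin multiplied by bin number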
- CONDITION PARAMETERS: c terminus: a fixed tail appended
MEASUREMENT TYPE: protein stability index

>>> df
   mutation_name         measurement_type  observed_value
0            L8K  protein stability index            3.04
1           V11T  protein stability index            3.08
2           F10G  protein stability index            3.07
3            L8G  protein stability index            2.92
4           F13Q  protein stability index            3.04
5            L8D  protein stability index            2.99
6            L9P  protein stability index            3.06
7           F13H  protein stability index            2.96
